target: CGRP1 receptor (CRLR/RAMP1 complex) of human neuroblastoma SK-N-MC cells (human, UniProt Q16602 23-461; O60894 27-148); experiment: cell-based or functional assay
Sequence (Q16602 23-461, chain 1 of 2): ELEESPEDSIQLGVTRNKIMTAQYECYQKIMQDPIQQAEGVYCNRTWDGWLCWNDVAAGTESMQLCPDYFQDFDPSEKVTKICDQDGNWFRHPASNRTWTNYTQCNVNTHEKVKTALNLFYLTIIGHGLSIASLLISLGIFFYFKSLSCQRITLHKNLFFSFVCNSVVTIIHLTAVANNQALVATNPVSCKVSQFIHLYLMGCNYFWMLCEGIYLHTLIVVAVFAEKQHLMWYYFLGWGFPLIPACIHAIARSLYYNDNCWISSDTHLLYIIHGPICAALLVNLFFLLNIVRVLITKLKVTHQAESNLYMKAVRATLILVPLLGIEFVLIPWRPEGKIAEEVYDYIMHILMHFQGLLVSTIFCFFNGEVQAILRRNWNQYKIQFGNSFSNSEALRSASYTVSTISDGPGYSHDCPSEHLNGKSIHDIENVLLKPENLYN
Sequence (O60894 27-148, chain 2 of 2): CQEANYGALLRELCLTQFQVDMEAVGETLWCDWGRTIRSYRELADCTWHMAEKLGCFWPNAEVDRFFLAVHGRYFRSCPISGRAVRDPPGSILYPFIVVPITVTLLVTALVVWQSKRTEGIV
Bridge positions count the residues as written; N and C are the ends. Square brackets hold non-standard residues; d marks the D form. hArg = N=C(N)NCCCC[C@H](N)C(=O)O; Cit = NC(=O)NCCC[C@H](N)C(=O)O
test_readout: Peptide IC50 (nM)
I only need the number, in nM, no unit after it.

# input Give reported Peptide IC50 value for WVTHXLAGLLSXSGGVVXKNFVXTDVGXFAF (Ac-WVTH[Cit]LAGLLS[Cit]SGGVV[hArg]KNFV[Oic]TDVG[Oic]FAF-NH2) [SEQ ID NO 932]
# output 1.31

# input Give reported Peptide IC50 value for WVTHXLAGLLSXSGGVVRKNFVPTDVGXFAF (Ac-WVTH[Cit]LAGLLS[Cit]SGGVVRKNFVPTDVG[Oic]FAF-NH2) [SEQ ID NO 920]
# output 0.85

# input Give reported Peptide IC50 value for WVTHXLAGLLSRSGGVVRKNFVPTDVGPFAF (Ac-WVTH[hArg]LAGLLSRSGGVVRKNFVPTDVGPFAF-NH2) [SEQ ID NO 865]
# output 0.44

# input Give reported Peptide IC50 value for WVTHXLAGLLSXSGGVVXKNFVPTDVGPXAF (Ac-WVTH[Cit]LAGLLS[Cit]SGGVV[hArg]KNFVPTDVGP[1-Nal]AF-NH2) [SEQ ID NO 960]
# output 2.24

# input Give reported Peptide IC50 value for WVTHXLAGLLSXSGGVVXKNFVPTDVGPFAF (Ac-WVTH[Cit]LAGLLS[Cit]SGGVV[3G-Dpr]KNFVPTDVGPFAF-NH2) [SEQ ID NO 938]
# output 1.39

# input Give reported Peptide IC50 value for WVTHRLAGLLSRSGGVVRKNFVPTDVGPFAX (Ac-WVTHRLAGLLSRSGGVVRKNFVPTDVGPFA[1-Nal]-NH2) [SEQ ID NO 914]
# output 33.1

# input Give reported Peptide IC50 value for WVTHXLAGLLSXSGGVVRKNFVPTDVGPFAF (Ac-WVTH[NMeArg]LAGLLS[NMeArg]SGGVVRKNFVPTDVGPFAF-NH2) [SEQ ID NO 875]
# output 1.63

# input Give reported Peptide IC50 value for Ac-WVEH[hArg]LKGLLS[Cit]SGGVVRKNFVPTDVGPFAF-NH2 (lactam 3-7) [SEQ ID NO 894]
# output 1.26

# input Give reported Peptide IC50 value for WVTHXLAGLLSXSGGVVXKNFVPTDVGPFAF (Ac-WVTH[hArg]LAGLLS[hCit]SGGVV[hArg]KNFVPTDVGPFAF-NH2) [SEQ ID NO 887]
# output 3.14

# input Give reported Peptide IC50 value for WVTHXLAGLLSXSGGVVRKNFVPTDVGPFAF (Ac-WVTH[hArg]LAGLLS[hArg]SGGVVRKNFVPTDVGPFAF-NH2) [SEQ ID NO 866]
# output 2.1

# input Give reported Peptide IC50 value for Ac-WVTHQLAGLLSQSGGVVRKNFVPTDVGPFAF-NH2 [SEQ ID NO 857]
# output 0.53

# input Give reported Peptide IC50 value for WVTHXLAGLLSXSGGVVXKNFVPTDVGXXAF (Ac-WVTH[Cit]LAGLLS[Cit]SGGVV[hArg]KNFVPTDVG[Oic][1-Nal]AF-NH2) [SEQ ID NO 933]
# output 0.88

# input Give reported Peptide IC50 value for WVTHXLAGLLSXSGGVVRKNFVPTDVGPFAX (Ac-WVTH[Cit]LAGLLS[Cit]SGGVVRKNFVPTDVGPFA[pI-Phe]-NH2) [SEQ ID NO 923]
# output 2.24
